Data origin: PubChem BioAssay AID623911

target: G protein-activated inward rectifier potassium channel 2 (Homo sapiens) + G protein-activated inward rectifier potassium channel 1 (Homo sapiens) (UniProt P48051+P48549); assay: GIRK1/2 thallium flux modulators, retest, confirmation, cell-based, HEK293 rmGlu8/hGIRK1/2, FluoZin-2 (AID 623911); details: HEK293 rmGlu8/hGIRK1/2, thallium flux FluoZin-2; actives lie on both sides; glutamate co-added at its EC20 level
Sequence (P48051 whole entry, looked up): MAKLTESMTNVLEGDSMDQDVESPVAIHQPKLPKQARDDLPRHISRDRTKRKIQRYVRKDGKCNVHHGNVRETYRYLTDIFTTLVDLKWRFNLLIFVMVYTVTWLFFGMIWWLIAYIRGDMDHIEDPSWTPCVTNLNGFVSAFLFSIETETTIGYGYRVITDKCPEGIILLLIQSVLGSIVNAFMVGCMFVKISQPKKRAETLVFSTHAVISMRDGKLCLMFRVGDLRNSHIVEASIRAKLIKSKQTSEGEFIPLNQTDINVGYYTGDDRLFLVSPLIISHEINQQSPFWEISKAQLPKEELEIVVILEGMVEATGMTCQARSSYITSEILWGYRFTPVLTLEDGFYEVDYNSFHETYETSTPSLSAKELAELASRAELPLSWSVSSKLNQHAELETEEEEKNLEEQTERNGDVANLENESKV
Sequence (P48549 whole entry, looked up): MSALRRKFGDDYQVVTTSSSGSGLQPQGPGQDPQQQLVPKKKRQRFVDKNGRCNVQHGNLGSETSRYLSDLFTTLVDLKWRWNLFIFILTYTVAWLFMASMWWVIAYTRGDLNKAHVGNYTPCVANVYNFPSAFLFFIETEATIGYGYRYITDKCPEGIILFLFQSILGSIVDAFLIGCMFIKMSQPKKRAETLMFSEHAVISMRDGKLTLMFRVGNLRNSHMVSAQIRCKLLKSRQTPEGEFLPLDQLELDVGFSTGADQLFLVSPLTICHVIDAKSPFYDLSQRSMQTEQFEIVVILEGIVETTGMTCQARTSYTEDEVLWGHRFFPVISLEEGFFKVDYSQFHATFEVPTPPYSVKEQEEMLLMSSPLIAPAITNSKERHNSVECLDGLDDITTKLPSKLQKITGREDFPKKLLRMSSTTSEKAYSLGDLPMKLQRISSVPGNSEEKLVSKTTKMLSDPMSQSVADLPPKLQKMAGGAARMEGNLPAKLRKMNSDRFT
In all, about 2,100 compounds went through this assay and about 770 (37%) were called active.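 Rule for the calls: active = by-eye trace score of 1 for enhancers or -1 for inhibitors, so actives lie on both sides (some results past the limit were not filed as active); inactive = score 0, or 3 fluorescent, or 4 baseline rise.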 This is one part of the list.
Returns: one label drawn from YES = active, NO = inactive

-- ask So what was the verdict on CCCCCCN1C2=NCCN2c2ccccc21 in this test?
-- reply YES

-- ask So what was the verdict on Cn1cc(CCC(=O)NCc2ccc3c(c2)OCO3)c2ccccc21 in this test?
-- reply NO

-- ask So what was the verdict on Cc1c(C(=O)N2CCc3ccccc32)oc2c1C(=O)CC(C)(C)C2 in this test?
-- reply NO

-- ask So what was the verdict on CC(Nc1nc(N2CCCC2)nc2ccccc12)c1ccccc1 (centres undefined) in this test?
-- reply YES

-- ask So what was the verdict on COC(=O)Nc1nc(C)c(C(=O)N(C)C)s1 in this test?
-- reply NO

-- ask So what was the verdict on C/C(=N\NC(=O)COc1ccc(C)cc1C(C)C)c1ccc(-n2ccnc2)cc1 in this test?
-- reply YES

-- ask So what was the verdict on NC(=O)Nc1cccc2ccccc12 in this test?
-- reply NO

-- ask So what was the verdict on CCOC(=O)C1=C(CC)Nc2ccccc2N=C1NC(=O)c1ccc(S(=O)(=O)N(C)C)cc1 in this test?
-- reply NO

-- ask So what was the verdict on Cc1cccc(-c2nc(CN3CCCC(C(=O)NC4CCCCC4)C3)c(C)o2)c1 (centres undefined) in this test?
-- reply YES

-- ask So what was the verdict on CC(C)(C)c1ccc(CN2C3=NCCCN3c3ccccc32)cc1 in this test?
-- reply YES

-- ask So what was the verdict on CCOC(=O)C1=C(CC)Nc2ccccc2N=C1NC(=O)Nc1ccc(Cl)c(Cl)c1 in this test?
-- reply YES

-- ask So what was the verdict on CS(=O)(=O)N(CCc1ccccc1)CC(=O)NCc1ccc2c(c1)OCO2 in this test?
-- reply NO

-- ask So what was the verdict on C=COCCNC(=O)Nc1ccc(Cl)c(Cl)c1 in this test?
-- reply NO

-- ask So what was the verdict on CCc1nc2cc(Cl)c(Cl)cc2[nH]1 in this test?
-- reply YES

-- ask So what was the verdict on CCn1nc(C(=O)OCC(=O)c2c[nH]c3ccccc23)c2ccccc2c1=O in this test?
-- reply NO

-- ask So what was the verdict on CC(C)(C)c1ccc(OCCON2C(=O)CCC2=O)c(Cl)c1 in this test?
-- reply NO

-- ask So what was the verdict on CC(=O)c1sc(NC(=O)c2cc(-c3ccccc3)nn2-c2ccccc2)nc1C in this test?
-- reply YES

-- ask So what was the verdict on COC(=O)C(C)N(C(=O)c1cccc2ccccc12)c1c(C)cccc1C (centres undefined) in this test?
-- reply YES

-- ask So what was the verdict on CC1CSc2ccccc2NC1=S (centres undefined) in this test?
-- reply NO

-- ask So what was the verdict on Cc1cc2nc(CCN(C(=S)NCC(C)C)C3CCCC3)[nH]c2cc1C in this test?
-- reply NO

-- ask So what was the verdict on CCCCn1nc(C(=O)N2CCc3ccccc32)c2ccccc2c1=O in this test?
-- reply YES

-- ask So what was the verdict on Cc1ccc(Cn2c(SCC(=O)N3CC(=O)Nc4ccccc43)nc3ccccc3c2=O)cc1 in this test?
-- reply NO

-- ask So what was the verdict on COC(=O)C(C)N(C(=O)c1cccc(Cl)c1)c1c(C)cccc1C (centres undefined) in this test?
-- reply YES

-- ask So what was the verdict on O=C(C1CCCN(Cc2cccs2)C1)N1CCCCCC1 (centres undefined) in this test?
-- reply NO
